- EXPERIMENTAL_TARGET: Nuclear receptor subfamily 1 group I member 3 (Homo sapiens)
- PROTOCOL_SUMMARY: qHTS assay to identify small molecule antagonists of the constitutive androstane receptor (CAR) signaling pathway (AID 1224838);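 further: HepG2 cells stably expressing hCAR with CYP2B6 luciferase reporter stimulated by CITCO; nearly all actives have a fitted effect of over 40% in size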
- CONDITION_NOTES: HepG2-CYP2B6-hCAR luciferase, CITCO-stimulated, 24 h; series mostly up to 92.4 µM
Records with an inconclusive call do not appear. Calls of active or inactive are those of the source. The call rests on the fitted dose curve; in most records, active means well fitted inhibition curve with a large enough effect in the repeat runs; inconclusive means weak or mixed curves, or effect the other way; inactive means no such curve, though single readings can be large or run the other way.
Result category, one only: label 1 (active), label 0 (inactive)

A selection of reference data follows.
# lookup: test call for `CCOC(=O)[C@H](CCc1ccccc1)N[C@@H](C)C(=O)N1Cc2ccccc2C[C@H]1C(=O)O`
label 0

# lookup: test call for `Clc1ccc(Cl)c(Cl)c1Cl`
label 0

# lookup: test call for `CCc1ccc(O)cc1`
label 0

# lookup: test call for `Cc1ccc(C(=O)O)o1`
label 0

# lookup: test call for `CC#C[C@]1(O)CC[C@H]2[C@@H]3CCC4=CC(=O)CCC4=C3[C@@H](c3ccc(N(C)C)cc3)C[C@@]21C`
label 0

# lookup: test call for `CN(C)c1ccc(C(=N)c2ccc(N(C)C)cc2)cc1`
label 1

New cases:
# lookup: test call for CN(CCOc1ccc(CC2SC(=O)NC2=O)cc1)c1ccccn1 (stereo unspecified)
label 0

# lookup: test call for `Cc1ccc(C)c(C)c1`
label 0

# lookup: test call for `CC(=O)CCc1ccccc1`
label 0

# lookup: test call for CCCCCCCCCCC=CC1CC(=O)OC1=O (stereo unspecified)
label 0

# lookup: test call for CCCCC(CC)C(=O)OCCOCCOCCOC(=O)C(CC)CCCC (stereo unspecified)
label 0

# lookup: test call for `CC(=O)Nc1ccc(C(=O)O)cc1`
label 0

# lookup: test call for `NCCNCCNCCNCCN`
label 0

# lookup: test call for `C[C@@H]1O[C@@H](OC[C@H]2O[C@@H](Oc3c(-c4ccc(O)c(O)c4)oc4cc(O)cc(O)c4c3=O)[C@H](O)[C@@H](O)[C@@H]2O)[C@H](O)[C@H](O)[C@H]1O`
label 0

----------
- EXPERIMENTAL_TARGET: Aromatase (Homo sapiens) (UniProt P11511)
- Sequence (P11511 whole entry, looked up): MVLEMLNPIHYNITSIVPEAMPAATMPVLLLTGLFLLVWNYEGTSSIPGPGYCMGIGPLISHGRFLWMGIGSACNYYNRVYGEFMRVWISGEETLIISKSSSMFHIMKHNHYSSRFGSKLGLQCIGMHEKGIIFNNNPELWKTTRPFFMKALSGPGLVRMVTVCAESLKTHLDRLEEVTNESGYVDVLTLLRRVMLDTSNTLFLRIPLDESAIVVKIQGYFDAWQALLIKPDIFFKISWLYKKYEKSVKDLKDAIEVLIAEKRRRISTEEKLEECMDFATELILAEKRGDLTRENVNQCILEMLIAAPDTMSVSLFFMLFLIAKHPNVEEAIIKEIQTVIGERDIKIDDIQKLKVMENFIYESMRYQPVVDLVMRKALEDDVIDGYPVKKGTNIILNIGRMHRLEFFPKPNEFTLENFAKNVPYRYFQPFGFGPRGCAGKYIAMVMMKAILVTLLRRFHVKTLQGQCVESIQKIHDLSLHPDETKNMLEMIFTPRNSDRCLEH
- PROTOCOL_SUMMARY: qHTS assay to identify aromatase inhibitors (AID 743083); further: nearly all actives have a fitted effect of over 55% in size
- CONDITION_NOTES: MCF-7 aro ERE, testosterone-driven ERE luciferase, 24 h; series mostly up to 70.3 µM
Inconclusive results are not listed. The source made the active and inactive calls. Calls come from the whole dose curve; as a rule, active = well fitted inhibition curve with a large enough effect in the repeat runs; inconclusive = weak or mixed curves; inactive = no such curve, though single readings can be large or run the other way.
Result category, one only: true (1) for active, false (0) for inactive

A selection of reference data follows.
# lookup: test call for `OCCOCCOCCOCCO`
false (0)

# lookup: test call for `O=C(c1cc(O)c(O)c(O)c1)c1ccc(O)c(O)c1O`
false (0)

# lookup: test call for `O=c1c(-c2ccc(O)cc2)coc2cc(O)ccc12`
false (0)

# lookup: test call for `CCCCCCCCC`
false (0)

# lookup: test call for `O=C(Oc1ccccc1)c1ccc(O)cc1`
false (0)

# lookup: test call for `Cc1cc(O)cc(C)c1Cl`
false (0)

# lookup: test call for `O=C(c1ccc(O)cc1)c1ccc(O)cc1O`
false (0)

# lookup: test call for `COC(=O)Nc1nc2ccc(Sc3ccccc3)cc2[nH]1`
false (0)

# lookup: test call for `O=Nc1ccc(O)cc1`
false (0)

# lookup: test call for `CC(C)Cc1ccccc1`
false (0)

New cases:
# lookup: test call for `Oc1ccc2ccccc2c1N=Nc1ccccc1`
false (0)

# lookup: test call for CC1Cc2ccccc2N1NC(=O)c1ccc(Cl)c(S(N)(=O)=O)c1 (configuration not stated)
false (0)

# lookup: test call for `O=S(=O)(Oc1ccc(Cl)cc1Cl)c1ccccc1`
false (0)

# lookup: test call for `CCc1ccccc1O`
false (0)

# lookup: test call for `Cc1ccc(C(=O)O)o1`
false (0)
